Cited source: patent US9006228B2

Target: UniProtKB Q8TDV5
Sequence (Q8TDV5 1-308 limits assumed): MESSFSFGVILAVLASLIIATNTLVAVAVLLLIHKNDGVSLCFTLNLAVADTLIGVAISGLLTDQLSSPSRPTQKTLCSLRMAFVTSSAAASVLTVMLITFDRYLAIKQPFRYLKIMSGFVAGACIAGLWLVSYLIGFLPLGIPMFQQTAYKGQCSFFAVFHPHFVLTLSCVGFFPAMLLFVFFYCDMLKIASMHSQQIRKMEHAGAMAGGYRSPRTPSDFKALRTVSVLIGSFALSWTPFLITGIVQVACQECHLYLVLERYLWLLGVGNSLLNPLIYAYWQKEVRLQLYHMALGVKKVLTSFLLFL
Assay: Measurement of GPR119 signaling (cAMP assay; LANCE kit or HTRF) in HEK293 cells stably transfected with human GPR119
Conditions: agonist-stimulated cAMP in HEK293 cells expressing human GPR119
metric.name: pEC50
Hey, just a heads up that pEC50 is the negative log base 10 of the concentration in molar.

Guide cases for pEC50, answers given:
CC1(OC(=O)N2CCC([C@H]3C[C@H]3COCc3cc(F)c(S(C)(=O)=O)c(F)c3)CC2)CC1 | 7.93
O=S(=O)(CCO)c1ccc(COC[C@@H]2C[C@@H]2C2CCN(c3ncc(Cl)cn3)CC2)nc1 | 7.66
O=S(=O)(CCO)c1ccc(COC[C@@H]2C[C@@H]2C2CCN(c3ncc(Br)cn3)CC2)c(F)c1 | 8.77
O=S(=O)(c1ccc(COC[C@@H]2C[C@@H]2C2CCN(c3nc(C4CCC4)no3)CC2)cc1)C1CC1 | 8.15
COC1CN(C(=O)Cc2ccc(COC[C@@H]3C[C@@H]3C3CCN(c4nc(C(C)C)no4)CC3)cc2F)C1 | 9.02

Entry CCc1cnc(N2CCC([C@H]3C[C@H]3COCc3ccc(-c4cccnn4)c(F)c3)CC2)nc1 , system UniProtKB Q8TDV5: what pEC50 was measured?
8.52

Can you look up pEC50 on UniProtKB Q8TDV5 for CCc1cnc(N2CCC([C@H]3C[C@H]3COCc3ccc(S(C)(=O)=O)c(F)c3)CC2)nc1 ?
9.70
